Read-out: Fatty acid synthase (Homo sapiens) (UniProt P49327)
Sequence (P49327 whole entry, looked up): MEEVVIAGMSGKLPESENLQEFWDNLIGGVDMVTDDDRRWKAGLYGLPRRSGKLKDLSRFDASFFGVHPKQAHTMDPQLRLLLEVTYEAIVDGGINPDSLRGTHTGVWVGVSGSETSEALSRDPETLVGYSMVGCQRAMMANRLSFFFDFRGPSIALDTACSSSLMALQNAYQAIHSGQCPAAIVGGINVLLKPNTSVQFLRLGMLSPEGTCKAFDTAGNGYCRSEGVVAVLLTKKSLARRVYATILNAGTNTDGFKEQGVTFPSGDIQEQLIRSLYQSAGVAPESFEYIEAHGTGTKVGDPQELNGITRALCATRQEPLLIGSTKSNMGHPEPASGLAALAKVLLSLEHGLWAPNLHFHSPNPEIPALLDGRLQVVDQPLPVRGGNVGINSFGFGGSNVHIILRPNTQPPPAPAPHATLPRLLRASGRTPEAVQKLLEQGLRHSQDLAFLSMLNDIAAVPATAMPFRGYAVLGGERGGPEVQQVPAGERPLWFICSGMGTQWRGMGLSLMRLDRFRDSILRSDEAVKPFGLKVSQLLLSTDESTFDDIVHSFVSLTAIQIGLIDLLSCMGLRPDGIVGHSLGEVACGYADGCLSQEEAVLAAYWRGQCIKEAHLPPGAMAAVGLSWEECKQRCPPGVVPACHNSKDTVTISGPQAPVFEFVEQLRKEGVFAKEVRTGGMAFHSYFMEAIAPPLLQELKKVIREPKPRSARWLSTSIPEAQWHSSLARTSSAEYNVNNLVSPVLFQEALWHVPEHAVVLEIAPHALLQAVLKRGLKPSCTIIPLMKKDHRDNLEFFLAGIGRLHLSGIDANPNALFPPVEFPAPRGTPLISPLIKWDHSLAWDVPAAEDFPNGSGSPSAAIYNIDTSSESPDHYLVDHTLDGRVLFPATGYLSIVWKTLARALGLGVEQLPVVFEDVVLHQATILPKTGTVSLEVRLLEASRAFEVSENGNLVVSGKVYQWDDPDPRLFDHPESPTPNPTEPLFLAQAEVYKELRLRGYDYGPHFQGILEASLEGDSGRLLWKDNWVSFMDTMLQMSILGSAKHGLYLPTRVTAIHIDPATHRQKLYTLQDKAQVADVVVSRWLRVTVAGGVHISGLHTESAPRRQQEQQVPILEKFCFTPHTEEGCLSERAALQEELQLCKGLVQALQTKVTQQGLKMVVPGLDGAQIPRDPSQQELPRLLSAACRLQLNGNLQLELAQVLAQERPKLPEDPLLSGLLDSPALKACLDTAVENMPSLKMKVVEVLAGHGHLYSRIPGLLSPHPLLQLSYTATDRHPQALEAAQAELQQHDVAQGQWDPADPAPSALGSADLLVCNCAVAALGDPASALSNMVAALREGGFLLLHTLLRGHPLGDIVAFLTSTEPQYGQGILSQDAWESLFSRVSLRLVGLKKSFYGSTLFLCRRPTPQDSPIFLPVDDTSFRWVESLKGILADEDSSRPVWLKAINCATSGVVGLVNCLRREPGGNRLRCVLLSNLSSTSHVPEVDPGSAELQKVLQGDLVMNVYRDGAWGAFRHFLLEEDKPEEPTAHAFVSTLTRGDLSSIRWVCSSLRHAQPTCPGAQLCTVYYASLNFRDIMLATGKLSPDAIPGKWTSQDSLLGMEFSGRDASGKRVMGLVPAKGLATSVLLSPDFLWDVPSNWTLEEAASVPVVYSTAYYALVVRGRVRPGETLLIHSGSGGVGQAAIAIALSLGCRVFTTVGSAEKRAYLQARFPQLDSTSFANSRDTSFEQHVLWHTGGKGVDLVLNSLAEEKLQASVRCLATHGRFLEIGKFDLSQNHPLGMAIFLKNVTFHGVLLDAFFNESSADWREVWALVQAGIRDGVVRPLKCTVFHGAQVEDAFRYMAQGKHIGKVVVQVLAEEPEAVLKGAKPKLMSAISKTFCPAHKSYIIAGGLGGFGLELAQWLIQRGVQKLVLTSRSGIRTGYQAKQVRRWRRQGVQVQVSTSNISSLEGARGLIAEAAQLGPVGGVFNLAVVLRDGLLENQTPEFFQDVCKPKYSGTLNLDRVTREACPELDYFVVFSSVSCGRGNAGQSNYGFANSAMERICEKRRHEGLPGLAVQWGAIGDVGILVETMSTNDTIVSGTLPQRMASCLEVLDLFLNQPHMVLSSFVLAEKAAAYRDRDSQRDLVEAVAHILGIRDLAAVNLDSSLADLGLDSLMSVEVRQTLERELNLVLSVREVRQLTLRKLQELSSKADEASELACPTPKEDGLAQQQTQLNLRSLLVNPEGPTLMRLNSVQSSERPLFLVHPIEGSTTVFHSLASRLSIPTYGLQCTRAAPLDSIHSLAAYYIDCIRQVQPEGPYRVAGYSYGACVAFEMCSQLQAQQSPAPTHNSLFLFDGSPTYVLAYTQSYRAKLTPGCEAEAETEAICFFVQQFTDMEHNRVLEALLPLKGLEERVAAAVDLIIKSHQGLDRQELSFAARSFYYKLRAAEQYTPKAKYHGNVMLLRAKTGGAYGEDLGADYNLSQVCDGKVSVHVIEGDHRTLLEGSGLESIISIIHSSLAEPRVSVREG
Test Summary: LTEA_HepaRG_FASN: Life Technologies and Expression Analysis (LTEA) Assay for Fatty Acid Synthase (FASN) using HepaRG (AID 2283448)
Conditions Used: mRNA level, 48 h; actives raise or lower the signal
Active and inactive are the calls of the source. How the source made its calls: active means hit-call score of the fitted dose curve at least 0.9, where 1 is the maximum; inactive means score below 0.9.
I would appreciate it if you answered using one of these outcomes: active, inactive

Consider the following illustrative entries.
>  <Molecule>
COc1c(Cl)ccc(Cl)c1C(=O)O

>  <Discrete Label>
inactive

$$$$
>  <Molecule>
CCCCOC(=O)[C@@H](C)Oc1ccc(Oc2ccc(C(F)(F)F)cn2)cc1

>  <Discrete Label>
inactive

$$$$
>  <Molecule>
N#CSCSc1nc2ccccc2s1

>  <Discrete Label>
active

$$$$

Next item in the queue.
Prompt line: // outcome(item) with item = CCCCC(CC)CN1C(=O)C2C3C=CC(C3)C2C1=O (stereo not drawn)
Response line: active

* * *

Experimental Target: Androgen Receptor/SRC-1 Co-activator, AR (gene 367) (UniProt P10275)
Sequence (P10275 whole entry, looked up): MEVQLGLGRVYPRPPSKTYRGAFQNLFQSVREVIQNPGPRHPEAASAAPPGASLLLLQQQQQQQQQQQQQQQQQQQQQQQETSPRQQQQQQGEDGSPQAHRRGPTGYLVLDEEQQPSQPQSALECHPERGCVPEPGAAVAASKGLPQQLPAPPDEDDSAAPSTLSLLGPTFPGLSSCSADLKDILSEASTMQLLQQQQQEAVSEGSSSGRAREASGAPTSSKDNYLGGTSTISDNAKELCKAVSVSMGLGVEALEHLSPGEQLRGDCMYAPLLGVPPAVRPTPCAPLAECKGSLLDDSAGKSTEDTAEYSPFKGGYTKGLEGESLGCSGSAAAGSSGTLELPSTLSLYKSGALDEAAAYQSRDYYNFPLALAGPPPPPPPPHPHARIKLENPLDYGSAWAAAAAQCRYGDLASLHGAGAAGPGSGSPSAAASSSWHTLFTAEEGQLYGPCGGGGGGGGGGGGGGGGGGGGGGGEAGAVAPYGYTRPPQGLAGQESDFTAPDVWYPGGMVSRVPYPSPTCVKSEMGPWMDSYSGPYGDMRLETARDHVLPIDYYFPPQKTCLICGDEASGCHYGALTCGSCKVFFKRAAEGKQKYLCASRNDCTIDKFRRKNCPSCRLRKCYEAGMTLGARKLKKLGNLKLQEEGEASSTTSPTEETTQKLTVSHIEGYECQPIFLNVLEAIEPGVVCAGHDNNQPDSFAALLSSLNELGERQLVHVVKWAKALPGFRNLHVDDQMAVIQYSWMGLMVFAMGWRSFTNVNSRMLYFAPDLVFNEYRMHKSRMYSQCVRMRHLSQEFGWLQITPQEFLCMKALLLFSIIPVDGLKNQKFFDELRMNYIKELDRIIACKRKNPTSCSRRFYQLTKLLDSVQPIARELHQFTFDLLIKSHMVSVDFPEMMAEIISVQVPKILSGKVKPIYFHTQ
Test Summary: OT_AR_ARSRC1_0960: Odyssey Thera (OT) 16-hour HEK293T Protein-Complementation Assay for Androgen Receptor/SRC-1 Co-activator (AID 2283353);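 further: actives raise the signal above DMSO so potency reflects increased AR and SRC-1 complex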
Activity calls are given as the source filed them. The calls were made as follows: active = hit-call score of the fitted dose curve at least 0.9, where 1 is the maximum; inconclusive = response in the unintended direction; inactive = score below 0.9.
I would appreciate it if you answered using one of these outcomes: active, inactive

>  <Compound>
C[C@]12CC[C@@H]3c4ccc(O)cc4C[C@@H](CCCCCCCCCS(=O)CCCC(F)(F)C(F)(F)F)[C@H]3[C@@H]1CC[C@@H]2O (stereo partly drawn)

>  <Discrete Label>
inactive

$$$$
>  <Compound>
CCCCOCCOCCOCc1cc2c(cc1CCC)OCO2

>  <Discrete Label>
inactive

$$$$
>  <Compound>
CCCN(CCC)C(=O)SCC

>  <Discrete Label>
inactive

$$$$

Prompt line: // outcome(item) with item = CC1(C)C(C=C(Cl)Cl)C1C(=O)OCc1cccc(Oc2ccccc2)c1 (stereo not drawn)
Response line: inactive

Prompt line: // outcome(item) with item = `CSC(=O)c1cccc2nnsc12`
Response line: active

Prompt line: // outcome(item) with item = `Cc1nn(C)c(Oc2ccccc2)c1C=NOCc1ccc(C(=O)OC(C)(C)C)cc1`
Response line: inactive

Prompt line: // outcome(item) with item = `COC(=O)CSc1cc(N=c2sc(=O)n3n2CCCC3)c(F)cc1Cl`
Response line: inactive

Prompt line: // outcome(item) with item = `O=C(c1ccccc1)C1CCCCC1`
Response line: inactive

* * *

Test Summary: ATG_EGR_CIS: Attagene CIS-FACTORIAL HepG2 Assay for human Early Growth Response 1 (EGR1) (AID 2282938)
Conditions Used: HepG2 Attagene CIS-FACTORIAL EGR reporter mRNA; actives raise or lower the signal
Activity calls are given as the source filed them. How the source made its calls: active means hit-call score of the fitted dose curve at least 0.9, where 1 is the maximum; inactive means score below 0.9.
I would appreciate it if you answered using one of these outcomes: label 1 = active, label 0 = inactive

Consider the following illustrative entries.
>  <Molecule>
COC(=O)c1ccc(I)cc1S(=O)(=O)NC(=O)Nc1nc(C)nc(OC)n1

>  <Discrete Label>
label 0

$$$$
>  <Molecule>
N#CSCSc1nc2ccccc2s1

>  <Discrete Label>
label 0

$$$$
>  <Molecule>
CC1(C)C(C=C(Cl)Cl)C1C(=O)OCc1cccc(Oc2ccccc2)c1 (configuration not stated)

>  <Discrete Label>
label 0

$$$$
>  <Molecule>
C[C@]12C[C@H](O)[C@H]3[C@@H](CCC4=CC(=O)CC[C@@]43C)[C@@H]1CC[C@@H]2C(=O)CO

>  <Discrete Label>
label 0

$$$$
>  <Molecule>
COC(=O)c1cccc(C)c1S(=O)(=O)NC(=O)Nc1nc(OCC(F)(F)F)nc(N(C)C)n1

>  <Discrete Label>
label 0

$$$$
>  <Molecule>
COC(=O)c1ccccc1S(=O)(=O)NC(=O)Nc1nc(OC(F)F)cc(OC(F)F)n1

>  <Discrete Label>
label 0

$$$$
>  <Molecule>
COCCO

>  <Discrete Label>
label 0

$$$$
>  <Molecule>
CSC(=O)c1cccc2nnsc12

>  <Discrete Label>
label 0

$$$$
>  <Molecule>
CCCOC(=O)NCCCN(C)C

>  <Discrete Label>
label 0

$$$$
>  <Molecule>
O=C(c1ccc(O)cc1O)c1ccc(O)cc1O

>  <Discrete Label>
label 0

$$$$

Prompt line: // outcome(item) with item = C=CCOC(Cn1ccnc1)c1ccc(Cl)cc1Cl (configuration not stated)
Response line: label 1

Prompt line: // outcome(item) with item = `CCCCOC(=O)[C@@H](C)Oc1ccc(Oc2ccc(C(F)(F)F)cn2)cc1`
Response line: label 0

* * *

Test Summary: ATG_M_32_CIS: Attagene CIS-FACTORIAL HepG2 Assay for M32 Transcription Factor (Internal Marker) (AID 2282949);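 further: background control marker of the multiplexed CIS panel rather than a real target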
Conditions Used: HepG2 Attagene cis-factorial M32 reporter, mRNA; actives raise or lower the signal
Active and inactive are the calls of the source. How the source made its calls: active means hit-call score of the fitted dose curve at least 0.9, where 1 is the maximum; inactive means score below 0.9.
Result Type: outcome

>  <Molecule>
CCC(O)=C1C(=O)CC(C(=O)O)CC1=O (configuration not stated)

>  <outcome>
inactive

$$$$
>  <Molecule>
CCCCC(CC)COC(=O)c1ccccc1C(=O)O (configuration not stated)

>  <outcome>
inactive

$$$$
>  <Molecule>
CCC(C)OC(=O)N1CCCCC1CCO (configuration not stated)

>  <outcome>
inactive

$$$$
>  <Molecule>
CCCCCOC(=O)COc1cc(N2C(=O)C3=C(CCCC3)C2=O)c(F)cc1Cl

>  <outcome>
inactive

$$$$

Prompt line: Name the recorded outcome of the molecule listed here: `CSC(=O)c1cccc2nnsc12`
Response line: inactive

Prompt line: Name the recorded outcome of the molecule listed here: `CC(C)(c1ccc(O)cc1)c1ccc(O)cc1`
Response line: inactive

Prompt line: Name the recorded outcome of the molecule listed here: `CCSC(=O)N(CC(C)C)CC(C)C`
Response line: inactive

Prompt line: Name the recorded outcome of the molecule listed here: `COCCO`
Response line: inactive

Prompt line: Name the recorded outcome of the molecule listed here: `CC(=O)[C@H]1CC[C@H]2[C@@H]3CCC4=CC(=O)CC[C@]4(C)[C@H]3CC[C@]12C`
Response line: inactive

Prompt line: Name the recorded outcome of the molecule listed here: `C[C@]12C[C@H](O)[C@H]3[C@@H](CCC4=CC(=O)CC[C@@]43C)[C@@H]1CC[C@@H]2C(=O)CO`
Response line: inactive

Prompt line: Name the recorded outcome of the molecule listed here: `Cc1nn(C)c(Oc2ccccc2)c1C=NOCc1ccc(C(=O)OC(C)(C)C)cc1`
Response line: inactive

Prompt line: Name the recorded outcome of the molecule listed here: `CCOC(=O)c1ccc(O)cc1`
Response line: inactive

* * *

Read-out: Signal transducer and activator of transcription 3 (Homo sapiens) (UniProt P40763)
Sequence (P40763 whole entry, looked up): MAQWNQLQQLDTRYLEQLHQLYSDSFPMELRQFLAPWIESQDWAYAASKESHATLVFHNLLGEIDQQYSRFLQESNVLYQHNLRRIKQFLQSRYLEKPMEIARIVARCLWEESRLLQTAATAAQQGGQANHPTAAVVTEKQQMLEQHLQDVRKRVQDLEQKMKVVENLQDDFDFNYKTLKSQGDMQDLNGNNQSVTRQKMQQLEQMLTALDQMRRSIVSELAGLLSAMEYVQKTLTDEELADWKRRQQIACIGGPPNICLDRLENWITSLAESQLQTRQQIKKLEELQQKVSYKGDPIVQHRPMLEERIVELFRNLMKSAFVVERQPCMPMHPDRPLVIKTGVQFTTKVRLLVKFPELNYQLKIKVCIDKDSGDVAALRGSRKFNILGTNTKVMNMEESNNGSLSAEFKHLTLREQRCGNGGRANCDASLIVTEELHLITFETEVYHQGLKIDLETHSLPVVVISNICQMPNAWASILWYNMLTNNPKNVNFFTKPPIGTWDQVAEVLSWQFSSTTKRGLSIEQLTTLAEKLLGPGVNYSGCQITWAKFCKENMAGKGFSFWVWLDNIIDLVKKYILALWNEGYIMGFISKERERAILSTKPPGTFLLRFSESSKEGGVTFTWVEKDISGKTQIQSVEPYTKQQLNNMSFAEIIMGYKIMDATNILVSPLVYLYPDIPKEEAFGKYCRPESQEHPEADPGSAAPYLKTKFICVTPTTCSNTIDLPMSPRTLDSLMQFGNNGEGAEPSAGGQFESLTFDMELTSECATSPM
Test Summary: LTEA_HepaRG_STAT3: Life Technologies and Expression Analysis (LTEA) Assay for Signal transducer and activator of transcription (STAT3) using HepaRG (AID 2283529)
Conditions Used: mRNA level, 48 h; actives raise or lower the signal
Experimental: LTEA_HepaRG is a cell based, multiplexed-readout assay that uses HepaRG, a human liver cell line, with measurements taken at 48 hours after chemical dosing on a 96-well plate.LTEA_HepaRG_STAT3 is one of 102 assay component(s) measured in the LTEA HepaRG cell culture assay. It is a marker of Cell proliferation, survival, death.Data from the assay component LTEA_HepaRG_STAT3 was analyzed into 1 endpoint. […]
Calls of active or inactive are those of the source. How the source made its calls: active means hit-call score of the fitted dose curve at least 0.9, where 1 is the maximum; inactive means score below 0.9.
I would appreciate it if you answered using one of these outcomes: active, inactive

>  <Compound>
CCOC(=O)COc1cc(-n2ncc(C(F)(F)F)c(C)c2=O)c(F)cc1Cl

>  <Discrete Label>
inactive

$$$$
>  <Compound>
CCCCOCCOCCOCc1cc2c(cc1CCC)OCO2

>  <Discrete Label>
inactive

$$$$

Prompt line: // outcome(item) with item = `CC(C)(C)[C@@H](O)[C@@H](Cc1ccc(Cl)cc1)n1cncn1`
Response line: inactive

Prompt line: // outcome(item) with item = CCOC(=O)C(C)Oc1ccc(Oc2cnc3cc(Cl)ccc3n2)cc1 (centres undefined)
Response line: inactive

Prompt line: // outcome(item) with item = CCOC(=O)C(C)Oc1ccc(Oc2nc3ccc(Cl)cc3o2)cc1 (centres undefined)
Response line: inactive

Prompt line: // outcome(item) with item = CCCCC(CC)COC(=O)c1ccccc1C(=O)O (centres undefined)
Response line: inactive

Prompt line: // outcome(item) with item = `COC(=O)CSc1cc(N=c2sc(=O)n3n2CCCC3)c(F)cc1Cl`
Response line: inactive

Prompt line: // outcome(item) with item = `CCN(CC)C(=O)c1cccc(C)c1`
Response line: active

Prompt line: // outcome(item) with item = `CCCCOC(=O)[C@@H](C)Oc1ccc(Oc2ccc(C(F)(F)F)cn2)cc1`
Response line: inactive

Prompt line: // outcome(item) with item = C=CCOC(Cn1ccnc1)c1ccc(Cl)cc1Cl (centres undefined)
Response line: inactive

* * *

Experimental Target: CCAAT/enhancer-binding protein beta (Homo sapiens) (UniProt P17676)
Sequence (P17676 whole entry, looked up): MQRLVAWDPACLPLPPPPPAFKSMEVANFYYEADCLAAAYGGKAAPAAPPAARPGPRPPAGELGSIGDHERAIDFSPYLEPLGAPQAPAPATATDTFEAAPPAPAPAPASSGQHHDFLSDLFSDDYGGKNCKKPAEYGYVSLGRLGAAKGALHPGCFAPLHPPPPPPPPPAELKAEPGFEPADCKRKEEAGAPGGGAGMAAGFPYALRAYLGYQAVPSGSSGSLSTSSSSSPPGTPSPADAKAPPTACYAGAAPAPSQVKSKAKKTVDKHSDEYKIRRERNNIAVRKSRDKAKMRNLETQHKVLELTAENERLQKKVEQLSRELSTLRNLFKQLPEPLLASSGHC
Test Summary: ATG_C_EBP_CIS: Attagene CIS-FACTORIAL HepG2 Assay for human CCAAT/Enhancer Binding Protein (C/EBP) beta (AID 2282927)
Conditions Used: HepG2 Attagene cis-factorial transcription factor reporter; actives raise or lower the signal
Calls of active or inactive are those of the source. The calls were made as follows: active = hit-call score of the fitted dose curve at least 0.9, where 1 is the maximum; inactive = score below 0.9.
Result Type: AC50

Below are worked cases with known answers.
>  <Molecule>
Cc1nn(C)c(Oc2ccccc2)c1C=NOCc1ccc(C(=O)OC(C)(C)C)cc1

>  <AC50>
50.5 nM (active)

$$$$
>  <Molecule>
c1ccc(Nc2ccccc2)cc1

>  <AC50>
inactive

$$$$
>  <Molecule>
C[C@]12CC[C@@H]3c4ccc(O)cc4C[C@@H](CCCCCCCCCS(=O)CCCC(F)(F)C(F)(F)F)[C@H]3[C@@H]1CC[C@@H]2O (stereo partly specified)

>  <AC50>
inactive

$$$$
>  <Molecule>
CCCN(CCC)C(=O)SCC

>  <AC50>
inactive

$$$$

Prompt line: Name the recorded AC50 of the molecule listed here: `COc1nc(C)nc(NC(=O)NS(=O)(=O)c2ccccc2OCCCl)n1`
Response line: inactive

Prompt line: Name the recorded AC50 of the molecule listed here: `CCNc1nc(N)nc(Cl)n1`
Response line: inactive
